assay: yeast display, Sf9 membrane polyspecificity reagent, FACS + sequencing; frameworks hold sequencing errors
property: polyreactivity (PSR sort gate)

Completed entries (count: 4):
seq: QVQLVESGGGLDQAGGSLRLSCAASGRTFWNYAMGWYRQAPGKERELVAVIRFSDGSTYYADSVKGRFTISRDNAKNTVYLQMNSLKPEDTAVYYCAAKGPRRWASGFDYWGQGTQVTVSS
polyreactivity (PSR sort gate): low polyreactivity

seq: QVQLVESGGGLVQAGGSLRLSCAASGNIFKHYAMGWYRQAPGKERELVAAITWSGGSTHYADSVKGLFTISRDNAKNTVYLQMNSLKPEDTAVYYCAARGWWPGTKWTRYDYWGQGTQVTVSS
polyreactivity (PSR sort gate): high polyreactivity

seq: QVQLVESGGGLVQAGGSLRLSCADSGITFYIYAMGWYRQAPGKERELVATISWSDGRTYYADSVKGRFTISRDNAKNTVYLQMNRLKPEDTAVYYCAADWWYYQFDYEYWGQGTQVTVSS
polyreactivity (PSR sort gate): low polyreactivity

seq: QVQLVESGGGLVQAGGSLRLSCADSGGTFKLYAMGWYSQAPAKESELVAAISRRGGSTYYADSVKGRFTISRDNAKNTVYLQMNSLKPDDTAVYYCAAPGPTQSTQRGGYWGQGTQVTVSS
polyreactivity (PSR sort gate): high polyreactivity

For the sequence shown here, QVQLVESGGGLVQAGGRLRLSCAASGFTFVKNAMGWYRQAPGKERELVAAISSRGGSTYYADSVKGRFTISRDNAKNTVYLQMNSLKAEDTAVYYCATERERTMGYWGQGTQVTDSS , give the reported polyreactivity (PSR sort gate).
high polyreactivity

Given the sequence QIQLVESCGGLVQAGGSLRLICDDSGITFTIYAMGGYRQAHGKERELVAAIDSGGGTNYADSVKGRFTISRDNAKNTVYLQMNSLKPEDTAFYYCAAYWYAEGYWVSRDYWGQGTQVTVSS , what is its reported polyreactivity (PSR sort gate)?
low polyreactivity

What does the data say about its polyreactivity (PSR sort gate)? Entry: QVQLVESGGGLVQAGGSLRLSCAASGRNIQGYAMGWYRQAPGKESELVAAITLSGGSTYYADSVKGRFTISRDNAKNTVYLQMNSLKPEVTAVYYCNAYYPDEPSLYDYWGQGTQVTVSS
low polyreactivity

Which polyreactivity (PSR sort gate) is reported for this sequence? QVQLVESGGGLVQAGGSLRLSCAASGSTFGHYAMGWYRQAPGKERELVAGITDTDNHELRRLCEGRFTISRDNAKNTVYLQMTSLKPEDTAVYYCNADDTYYPLGGITGYDYWGQGTQVTVSS
low polyreactivity

I have this sequence here, QVQLVESGGGLVQAGGSLRLSCAASGIIFIGNAMGWYRQAPGKERELVAAIRSGTGTNYADSVKGRFTISRDNAKNTVYLQMNSLKPEDTAVYYSNADYNSGTYTQGTHEGDYWGQGTQVTVSS , and I need its recorded polyreactivity (PSR sort gate).
low polyreactivity

I'd like to know its polyreactivity (PSR sort gate). The sequence in question is QVQLVESGGGLVQAGGSLRLSCAASGFTFGWYAMGWYRQAPGKERELVADITYNDASTYYADSVKGRFTISRDNAKNTVYLQMNSLKPEDTAVYYCNAVHRRYLVTHPYDYWGQGTQVTVSS
low polyreactivity

Recorded polyreactivity (PSR sort gate) for QVQLVESGGGLVQAGGSLRLSCAASGYIFSLYAMGWYRQAPGKERELLADITTSAGSTYYADSVKGRFTISRDNAKNTVYLQMISLKPEDTAVYYCAAAVYGHSYYDYDYWGLGTQVTVSS , please?
low polyreactivity

Value lookup for polyreactivity (PSR sort gate); key = QVQIVESGGGLVQAGGSLRLSCAASVFTFGENAMGWYRQAPGKERELVAAITSGDGTSYADSVKGRFTISRDNAKYTVYLQMNSLKPEDTSVYYCAADVGDELYYSTYDYWGQGTQVTVSS
low polyreactivity

Please give the measured polyreactivity (PSR sort gate) for this sequence: QVQLVESGGGLVQAGGSLSFSCAASGNTFYRNAMGWYSQAPGKERELVAAITFSTVRTYYADSVKGRFTISRDNAKNTVYLQMNSLKPEDTAVYYCNKLYRGTWAKENGYWGQGTQVTVSS
high polyreactivity

Numbers sourced from the nanobody polyreactivity screen of Harvey et al. (2022).
